# credit: the NIST ThermoML archive (doi:10.1016/j.jct.2018.12.019)

details: 308.15 K; 98 kPa; Liquid; Vibrating tube method
outcomeMeasure: mass density (kg/m3)

CO [methanol] : 777.29
CCO [ethanol] : 776.48
CCCO [propan-1-ol] : 791.44
Cn1ccnc1 [1-methylimidazole] : 1021.66
CC(C)O [propan-2-ol] : 772.26

====

conditions: 318.15 K; 98 kPa; Liquid; Frequency=3 MHz; Single path-length method
outcomeMeasure: speed of sound (m/s)

Reference set, count: 3
CCCO : 1137.3
CC(C)O : 1067.9
CCO : 1075.2

[1] CO
[2] Cn1ccnc1
Compare reported speed of sound values for 1 and 2 . Which is lower? Provide the label of your selected option as the answer. 1
